Values from ChEMBL document CHEMBL5316338

// values below are reported inhibition
Target: Tyrosine-protein phosphatase non-receptor type 1 (Homo sapiens) (UniProt P18031)
Sequence (whole entry): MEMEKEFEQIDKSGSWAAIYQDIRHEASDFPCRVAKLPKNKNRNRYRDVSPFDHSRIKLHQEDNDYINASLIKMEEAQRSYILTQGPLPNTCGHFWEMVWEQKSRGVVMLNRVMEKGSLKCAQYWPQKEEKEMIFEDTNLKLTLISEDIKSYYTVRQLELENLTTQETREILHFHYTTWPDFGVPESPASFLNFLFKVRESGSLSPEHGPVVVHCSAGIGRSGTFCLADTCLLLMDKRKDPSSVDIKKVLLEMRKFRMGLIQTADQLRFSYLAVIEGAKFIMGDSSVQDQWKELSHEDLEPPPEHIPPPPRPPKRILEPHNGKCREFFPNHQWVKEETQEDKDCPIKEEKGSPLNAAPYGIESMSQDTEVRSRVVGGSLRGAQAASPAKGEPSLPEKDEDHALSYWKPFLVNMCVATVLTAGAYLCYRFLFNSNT
Assay: Inhibition of N-terminal His tagged recombinant human PTP1B expressed in Escherichia coli using pNPP as substrate assessed as substrate hydrolysis at 40 umol/L relative to control
Conditions: dose 40.0 µmol/L
Peptide text beside a SMILES is read from it. * marks the point of attachment. C15 diacid = O=C(O)CCCCCCCCCCCCCC(=O)*; Palmitoyl = CCCCCCCCCCCCCCCC(=O)*

INSERT INTO measurements (compound, meas_value) VALUES
  ('CCCCCCCCCCCCCCCC(=O)N[C@H](C(=O)N[C@@H](C)C(=O)N[C@@H](CCC(N)=O)C(=O)N[C@@H](CCC(=O)O)C(=O)N[C@@H](CC(C)C)C(=O)N[C@@H](CCCNC(=N)N)C(=O)N[C@@H](CCCNC(=N)N)C(=O)N[C@H](C(=O)NCC(=O)N[C@@H](CC(=O)O)C(=O)N[C@@H](CCC(=O)O)C(=O)N[C@@H](Cc1ccccc1)C(=O)O)[C@@H](C)CC)[C@@H](C)CC (Palmitoyl-IAQELRRIGDEF-OH)', '> 50%');

Challenge: Quick one: inhibition of CC[C@H](C)[C@H](NC(=O)CCCCCCCCCCCCCC(=O)O)C(=O)N[C@@H](C)C(=O)N[C@@H](CCC(N)=O)C(=O)N[C@@H](CCC(=O)O)C(=O)N[C@@H](CC(C)C)C(=O)N[C@@H](CCCNC(=N)N)C(=O)N[C@@H](CCCNC(=N)N)C(=O)N[C@H](C(=O)NCC(=O)N[C@@H](CC(=O)O)C(=O)N[C@@H](CCC(=O)O)C(=O)N[C@@H](Cc1ccccc1)C(=O)O)[C@@H](C)CC ({C15 diacid}-IAQELRRIGDEF-OH) ?
Response given: > 50%

----------
target: Tyrosine-protein phosphatase non-receptor type 1 (Homo sapiens); experiment: Inhibition of N-terminal His tagged recombinant human PTP1B expressed in Escherichia coli using pNPP as substrate assessed as substrate hydrolysis at 40 umol/L relative to control; details: dose 40.0 µmol/L
Square brackets hold non-standard residues; d marks the D form. Peptide text beside a SMILES is read from it. * marks the point of attachment. ξ: configuration not given here. C20 diacid = O=C(O)CCCCCCCCCCCCCCCCCCC(=O)*; Arachidoyl = CCCCCCCCCCCCCCCCCCCC(=O)*; ξR = N=C(N)NCCCC(N)C(=O)O; Propionyl = CCC(=O)*
endpoint.name: inhibition

Would you please look over these solved cases?
INSERT INTO measurements (molecule, endpoint_name, meas_value) VALUES
  ('CCCCCCCCCCCCCCCC(=O)N[C@@H](CCC(=O)N[C@H](C(=O)N[C@@H](C)C(=O)N[C@H](CCC(N)=O)C(=O)N[C@@H](CCC(=O)O)C(=O)N[C@@H](CC(C)C)C(=O)N[C@@H](CCCNC(=N)N)C(=O)N[C@@H](CCCNC(=N)N)C(=O)N[C@H](C(=O)NCC(=O)N[C@@H](CC(=O)O)C(=O)N[C@@H](CCC(=O)O)C(=O)N[C@@H](Cc1ccccc1)C(=O)O)[C@@H](C)CC)[C@@H](C)CC)C(=O)O', 'inhibition', '> 50%'),
  ('CC[C@H](C)[C@H](NC(=O)CCCCCCCCCCCCCCCCCCC(=O)O)C(=O)N[C@@H](C)C(=O)N[C@@H](CCC(N)=O)C(=O)N[C@@H](CCC(=O)O)C(=O)N[C@@H](CC(C)C)C(=O)N[C@@H](CCCNC(=N)N)C(=O)NC(CCCNC(=N)N)C(=O)N[C@H](C(=O)NCC(=O)N[C@@H](CC(=O)O)C(=O)N[C@@H](CCC(=O)O)C(=O)N[C@@H](Cc1ccccc1)C(=O)O)[C@@H](C)CC (some centres undefined) ({C20 diacid}-IAQELR[ξR]IGDEF-OH)', 'inhibition', '> 50%'),
  ('CCC(=O)N[C@H](C(=O)N[C@@H](C)C(=O)N[C@@H](CCC(N)=O)C(=O)N[C@@H](CCC(=O)O)C(=O)N[C@@H](CC(C)C)C(=O)N[C@@H](CCCNC(=N)N)C(=O)N[C@@H](CCCNC(=N)N)C(=O)N[C@H](C(=O)NCC(=O)N[C@@H](CC(=O)O)C(=O)N[C@@H](CCC(=O)O)C(=O)N[C@@H](Cc1ccccc1)C(=O)O)[C@@H](C)CC)[C@@H](C)CC (Propionyl-IAQELRRIGDEF-OH)', 'inhibition', '< 50%');

Shifting focus to the molecule that follows.
Challenge: Can you share its inhibition? I mean this molecule: CCCCCCCCCCCCCCCCCCCC(=O)N[C@H](C(=O)N[C@@H](C)C(=O)N[C@@H](CCC(N)=O)C(=O)N[C@@H](CCC(=O)O)C(=O)N[C@@H](CC(C)C)C(=O)N[C@@H](CCCNC(=N)N)C(=O)NC(CCCNC(=N)N)C(=O)N[C@H](C(=O)NCC(=O)N[C@@H](CC(=O)O)C(=O)N[C@@H](CCC(=O)O)C(=O)N[C@@H](Cc1ccccc1)C(=O)O)[C@@H](C)CC)[C@@H](C)CC (some centres undefined) (Arachidoyl-IAQELR[ξR]IGDEF-OH)
Response given: > 50%

----------
target: Tyrosine-protein phosphatase non-receptor type 1 (Homo sapiens); assay: Inhibition of N-terminal His tagged recombinant human PTP1B expressed in Escherichia coli using pNPP as substrate assessed as substrate hydrolysis at 40 umol/L relative to control; settings: dose 40.0 µmol/L
Peptide text beside a SMILES is read from it. * marks the point of attachment. C16 diacid = O=C(O)CCCCCCCCCCCCCCC(=O)*; Decanoyl = CCCCCCCCCC(=O)*
endpoint.name: inhibition

INSERT INTO assay_data (compound, meas_value) VALUES
  ('CC[C@H](C)[C@H](NC(=O)CCCCCCCCCCCCCCC(=O)O)C(=O)N[C@@H](C)C(=O)N[C@@H](CCC(N)=O)C(=O)N[C@@H](CCC(=O)O)C(=O)N[C@@H](CC(C)C)C(=O)N[C@@H](CCCNC(=N)N)C(=O)N[C@@H](CCCNC(=N)N)C(=O)N[C@H](C(=O)NCC(=O)N[C@@H](CC(=O)O)C(=O)N[C@@H](CCC(=O)O)C(=O)N[C@@H](Cc1ccccc1)C(=O)O)[C@@H](C)CC ({C16 diacid}-IAQELRRIGDEF-OH)', '> 50%');

Challenge: For the compound shown here, CCCCCCCCCC(=O)N[C@H](C(=O)N[C@@H](C)C(=O)N[C@@H](CCC(N)=O)C(=O)N[C@@H](CCC(=O)O)C(=O)N[C@@H](CC(C)C)C(=O)N[C@@H](CCCNC(=N)N)C(=O)N[C@@H](CCCNC(=N)N)C(=O)N[C@H](C(=O)NCC(=O)N[C@@H](CC(=O)O)C(=O)N[C@@H](CCC(=O)O)C(=O)N[C@@H](Cc1ccccc1)C(=O)O)[C@@H](C)CC)[C@@H](C)CC (Decanoyl-IAQELRRIGDEF-OH) , give the reported inhibition.
Response given: > 50%

----------
tested on: Proteinase K; assay: Stability of compound assessed as Proteinase K (unknown origin) mediated compound degradation by measuring half-life by HPLC analysis; type: ADME
Square brackets hold non-standard residues; d marks the D form. Peptide text beside a SMILES is read from it. * marks the point of attachment. ξ: configuration not given here. C22 diacid = O=C(O)CCCCCCCCCCCCCCCCCCCCC(=O)*; Stearoyl = CCCCCCCCCCCCCCCCCC(=O)*; Myristoyl = CCCCCCCCCCCCCC(=O)*; ξR = N=C(N)NCCCC(N)C(=O)O
endpoint.name: half-life (min)
Note: unit min is implicit; provide only the numeric part.

Solved cases below.
INSERT INTO assay_data (compound, endpoint_name, unit_abbreviation, meas_value) VALUES
  ('CCCCCCCCCCCCCC(=O)N[C@H](C(=O)N[C@@H](C)C(=O)N[C@@H](CCC(N)=O)C(=O)N[C@@H](CCC(=O)O)C(=O)N[C@@H](CC(C)C)C(=O)N[C@@H](CCCNC(=N)N)C(=O)NC(CCCNC(=N)N)C(=O)N[C@H](C(=O)NCC(=O)N[C@@H](CC(=O)O)C(=O)N[C@@H](CCC(=O)O)C(=O)N[C@@H](Cc1ccccc1)C(=O)O)[C@@H](C)CC)[C@@H](C)CC (stereo partly drawn) (Myristoyl-IAQELR[ξR]IGDEF-OH)', 'half-life', 'min', 17.4),
  ('CCCCCCCCCCCCCCCCCC(=O)N[C@H](C(=O)N[C@@H](C)C(=O)N[C@@H](CCC(N)=O)C(=O)N[C@@H](CCC(=O)O)C(=O)N[C@@H](CC(C)C)C(=O)N[C@@H](CCCNC(=N)N)C(=O)NC(CCCNC(=N)N)C(=O)N[C@H](C(=O)NCC(=O)N[C@@H](CC(=O)O)C(=O)N[C@@H](CCC(=O)O)C(=O)N[C@@H](Cc1ccccc1)C(=O)O)[C@@H](C)CC)[C@@H](C)CC (stereo partly drawn) (Stearoyl-IAQELR[ξR]IGDEF-OH)', 'half-life', 'min', 85.8);

Continue with the compound presented below.
Challenge: Write down the reported half-life of CC[C@H](C)[C@H](NC(=O)CCCCCCCCCCCCCCCCCCCCC(=O)O)C(=O)N[C@@H](C)C(=O)N[C@@H](CCC(N)=O)C(=O)N[C@@H](CCC(=O)O)C(=O)N[C@@H](CC(C)C)C(=O)N[C@@H](CCCNC(=N)N)C(=O)NC(CCCNC(=N)N)C(=O)N[C@H](C(=O)NCC(=O)N[C@@H](CC(=O)O)C(=O)N[C@@H](CCC(=O)O)C(=O)N[C@@H](Cc1ccccc1)C(=O)O)[C@@H](C)CC (stereo partly drawn) ({C22 diacid}-IAQELR[ξR]IGDEF-OH) , test system: Proteinase K.
Response given: 30.6
